# cytotoxicity at 10 µM per entry
# protocol description: Toxicity liver stage against HepG2, at 10uM
# Assay type: cell-based
# Set-up: test concentration 10 uM, cell line HepG2-A16-CD81EGFP
# settings: human, HepG2-A16-CD81EGFP cells; read-out: INHIBITION
Report the value in % with no unit label.

Solved cases below.
compound | result units | endpoint value
O=C(Cn1nc(Br)nc1Br)N1CCOCC1 | % | -1.14
Cc1nc(C)n(CC2CCCN(CCOc3ccccc3F)C2)n1 (centres undefined) | % | -18.5
Cc1nc(CN2CC3(CCN(c4ncccn4)C3)CC2=O)cs1 (centres undefined) | % | 5.31
Cc1cc(N2CCOC(C(F)(F)F)C2)nc(-c2ccccc2O)n1 (centres undefined) | % | -0.238
Cc1nn(C)c(Oc2cccc(F)c2)c1NC(=O)C1CCCO1 (centres undefined) | % | -7.64

Please indicate cytotoxicity at 10 µM recorded for CCc1nc(C)c(C(=O)NCCNc2ncccn2)s1 -2.16

Please indicate cytotoxicity at 10 µM recorded for O=C(c1ccc2c(c1)COC2)N1CCCN(Cc2cscn2)CC1 0.0102

Please indicate cytotoxicity at 10 µM recorded for Cc1ccc(OC2(C(=O)O)CCN(C(=O)c3cccc(F)c3)CC2)cn1 2.91

Please indicate cytotoxicity at 10 µM recorded for COc1ccccc1COCC(O)CN1CCC(c2ccn[nH]2)CC1 (centres undefined) -2.54

Please indicate cytotoxicity at 10 µM recorded for O=S(=O)(Cc1ccon1)N1CCN(c2ccncc2Cl)CC1 -4.96

Please indicate cytotoxicity at 10 µM recorded for COc1ccc(CN2CCC3(CCCNC3)C2)cc1Cn1cccn1 (centres undefined) -10.1

Please indicate cytotoxicity at 10 µM recorded for Cc1nsc(N2CCCN(c3nc(C4CC4)ns3)CC2)n1 -11.5

Please indicate cytotoxicity at 10 µM recorded for Cn1cc(C(=O)N2CCC(c3cc(CCO)n(C)n3)C2)cn1 (centres undefined) -0.0959

Please indicate cytotoxicity at 10 µM recorded for COc1cc(-n2cc(CCO)cn2)ccc1NC(C)=O 9.81

Please indicate cytotoxicity at 10 µM recorded for CN(Cc1nccn1C)C1CCN(CCc2ccccn2)CC1 -8.78

* * *

# protocol description: Toxicity liver stage against HepG2, at 10uM
# Type: cell-based
# Parameters: test concentration 10 uM, cell line HepG2-A16-CD81EGFP
# settings: human, HepG2-A16-CD81EGFP cells; read-out: INHIBITION
assay readout: cytotoxicity at 10 µM (%)
Report the value in % with no unit label.

Solved cases below.
molecule | cytotoxicity at 10 µM, %
Cc1nc(CCN2CCC(Oc3ccccc3F)CC2)c(C)s1 | 7.08
CNC(=O)CN1CCC(OCC2CCCO2)CC1 (configuration not stated) | 1.99
Cc1ccc(C)c(NC(=O)c2coc(C)n2)c1 | -5.97
Cc1nccc(C2CN(S(=O)(=O)N(C)C)C2)n1 | -5.44
c1ccc(CN2CCCC2Cn2cncn2)nc1 (configuration not stated) | -10.8

Please indicate cytotoxicity at 10 µM recorded for Cc1cc(NC(=O)C(C)Nc2cccc(COCc3ccco3)c2)no1 (configuration not stated) -1.42

Please indicate cytotoxicity at 10 µM recorded for O=C(NCCc1nc(-c2cccnc2)no1)c1ccc(C2CCCO2)s1 (configuration not stated) 11.2

* * *

# cytotoxicity at 10 µM per entry
# protocol description: Toxicity liver stage against HepG2, at 10uM
# Assay type: cell-based
# Parameters: test concentration 10 uM, cell line HepG2-A16-CD81EGFP
# settings: human, HepG2-A16-CD81EGFP cells; read-out: INHIBITION
Report the value in % with no unit label.

molecule | cytotoxicity at 10 µM, %
O=C(COCc1ccccc1)N1CCCC1c1noc(C2CC2)n1 (stereo not drawn) | -1.98

Please indicate cytotoxicity at 10 µM recorded for CCn1c(C)nnc1SCCn1cc(-c2ncc[nH]2)nn1 -6.99

Please indicate cytotoxicity at 10 µM recorded for OC(CN1CCN(Cc2cccnc2)CC1)c1cccs1 (stereo not drawn) -5.62

Please indicate cytotoxicity at 10 µM recorded for COc1cc(NC(=O)NCC2CCCO2)cc(OC)c1OC (stereo not drawn) -7.71

Please indicate cytotoxicity at 10 µM recorded for Cn1cnc2c1CCN(Cc1noc(-c3ccccc3)n1)C2 -1.96

Please indicate cytotoxicity at 10 µM recorded for CCn1cc(NC(=O)C(C)n2ncc(Cl)c2C)c(C(=O)NC)n1 (stereo not drawn) 9.51

Please indicate cytotoxicity at 10 µM recorded for CC(C)(CNC(=O)COc1cccc(F)c1)C(N)=O -4.89

Please indicate cytotoxicity at 10 µM recorded for CCCNCc1cn(C)nc1-c1cccnc1 6.36

Please indicate cytotoxicity at 10 µM recorded for CCC(=O)Nc1ccc(C(C)Nc2nc3c(cnn3C)c(=O)[nH]2)cc1 (stereo not drawn) 4.01

Please indicate cytotoxicity at 10 µM recorded for CC(C)N1CCCC(C(=O)NC(C)(C)c2nnc(N)s2)C1 (stereo not drawn) -2.4

Please indicate cytotoxicity at 10 µM recorded for O=C1CCCN1CCCC(=O)N1CCC2(CC1)[C@H](O)C[C@@H]2O -2.38

Please indicate cytotoxicity at 10 µM recorded for CC(C)CC(=O)N1CCN(C(=O)N(C)C)CC2(CC(=O)N(C)C2)C1 (stereo not drawn) -20.3

Please indicate cytotoxicity at 10 µM recorded for O=C(c1cscn1)N1CCC(O)(Cn2ccc3ccncc32)CC1 -18.2

Please indicate cytotoxicity at 10 µM recorded for Cc1nc(CN(C)CC2CCCN(CCc3ccc(Cl)cc3)C2)no1 (stereo not drawn) 8.15

Please indicate cytotoxicity at 10 µM recorded for CC(C#N)(NC(=O)COc1ccccc1Br)C1CC1 (stereo not drawn) 7.45

Please indicate cytotoxicity at 10 µM recorded for CO[C@@H]1CCN(C(=O)Cc2cccc(F)c2)[C@H]1Cc1cccnc1 -4.89

Please indicate cytotoxicity at 10 µM recorded for Cn1c(CN2CCC(N3CCNC3=O)CC2)cc(=O)n(C)c1=O -2.03

Please indicate cytotoxicity at 10 µM recorded for CCCc1cc(C(=O)N[C@H](C)[C@@H](O)c2ccc(O)cc2)n(C)n1 1.48

Please indicate cytotoxicity at 10 µM recorded for O=C(c1ccoc1)N1CCCN(C(=O)c2ccc(C3CCCN3)s2)CC1 (stereo not drawn) 1.27

* * *

# cytotoxicity at 10 µM per entry
# protocol description: Toxicity liver stage against HepG2, at 10uM
# Format: cell-based
# Design: test concentration 10 uM, cell line HepG2-A16-CD81EGFP
# settings: human, HepG2-A16-CD81EGFP cells; read-out: INHIBITION
Report the value in % with no unit label.

molecule | cytotoxicity at 10 µM, %
COc1ccc(Cl)cc1S(=O)(=O)N(C)CC(=O)Nc1ccon1 | -3.75
O=c1[nH]nc2c(S(=O)(=O)N3CCOCC3)cccn12 | -1.7
Cn1c(CN2CCCCC2)nnc1C1CCN(c2nccc(N)n2)CC1 | -7.98

Please indicate cytotoxicity at 10 µM recorded for CC(=O)N1CCN(Cc2ccc(C)o2)CC2(CC(=O)N(C)C2)C1 (stereo unspecified) -2.01

Please indicate cytotoxicity at 10 µM recorded for COCC(=O)Nc1nnc2n(Cc3cccc(OC)c3)[nH]c(C)c1-2 -11.7

* * *

# protocol description: Toxicity liver stage against HepG2, at 10uM
# Type: cell-based
# Design: test concentration 10 uM, cell line HepG2-A16-CD81EGFP
# settings: human, HepG2-A16-CD81EGFP cells; read-out: INHIBITION
# cytotoxicity at 10 µM per entry
Report the value in % with no unit label.

Solved cases below.
molecule | cytotoxicity at 10 µM [%]
O=C1O[C@@H]2CN(Cc3ccccc3F)C[C@@H]2N1CCCN1CCOCC1 | -4.73
CN1CCCN(C[C@@H]2CN(C(=O)CCc3cn[nH]c3)C[C@@H]2CO)CC1 | 2.72
O=C(Nc1ccc(Br)cc1F)c1cc(CN2CCOCC2)on1 | 6.39
O=C1CC(c2cccnc2)C2(CCN(C(=O)N3CCOCC3)CC2)N1 (stereo not drawn) | -79.5
COCCN(C)C(=O)c1ccccc1-n1cc(CN(C)C)cn1 | -29.5
Cc1nc(CN2CCO[C@H]3CN(C(=O)Cc4cccs4)C[C@H]32)cs1 | -124

Next molecule, cytotoxicity at 10 µM to be filled in.
Please indicate cytotoxicity at 10 µM recorded for O=S1(=O)c2ccccc2C(O)CN1CCO (stereo not drawn) 2.37

* * *

# protocol description: Toxicity liver stage against HepG2, at 10uM
# Type: cell-based
# Parameters: test concentration 10 uM, cell line HepG2-A16-CD81EGFP
# settings: human, HepG2-A16-CD81EGFP cells; read-out: INHIBITION
# cytotoxicity at 10 µM per entry

compound | cytotoxicity at 10 µM
c1cnn(CC2CN(Cc3csc(-c4ccsc4)n3)CCO2)c1 (stereo not drawn) | 3.23%
COc1cccc(CN2CCN(C(=O)CN3CCOCC3)CC2)n1 | -5.7%
CCS(=O)(=O)N1Cc2nccn2CC(Cn2nc(C)nc2C)C1 (stereo not drawn) | -2.34%
Cc1cc(C)c(CNC(=O)NCCOc2ccc3c(c2)CCC3)c(=O)[nH]1 | -23.3%
O=C(c1ccc2nccnc2c1)N1C[C@@H](CN2CCCC2)[C@@H](CO)C1 | 4.23%
Cc1cccc(C(C(=O)NCCCc2ccccn2)N(C)C)c1 (stereo not drawn) | -7.16%

Please indicate cytotoxicity at 10 µM recorded for Cc1ccc(CN2C[C@@H]3CCN(Cc4ccncc4)C(=O)[C@H]3C2)s1 4.53%

Please indicate cytotoxicity at 10 µM recorded for O=C(CCNS(=O)(=O)c1ccccc1)N1CCOC(c2ccccc2)C1 (stereo not drawn) 6.6%

Please indicate cytotoxicity at 10 µM recorded for CN1CC2(CCCN(c3nc(N)nc4c3CCCC4)C2)OC1=O (stereo not drawn) -0.519%

Please indicate cytotoxicity at 10 µM recorded for CCCN1CCC(Cc2noc(-c3cc4cccnc4nc3C)n2)CC1 -0.749%

Please indicate cytotoxicity at 10 µM recorded for c1cnn(CC2CN(Cc3csc(C4CCCCC4)n3)CCO2)c1 (stereo not drawn) -6.37%
